EC50 by entry:
Test system: Influenza A (Taiwan)
Assay: Inhibition of influenza A cytopathic effect (clumping) in MDCK cells
Format: cell-based, Influenza A virus (A/Taiwan strain)
Details: Influenza A virus, 24 h, 50% reduction in percent clumped cells, read-out: ED50 Influenza A (Taiwan)
Experimental: With virus infection, a cytopathic effect characterized by cell clumping is observed. For each compound tested, drug concentrations of 0.1, 1, 10, 25, and 100 μg/ml were added to cultured cells at the time of virus infection, as detailed in Examples 9 and 11. […] The anti-influenza A activity of KY compounds was evaluated as described in Example 9, except that MDCK cells (kidney cell line) was used for infection in vitro by influenza virus (strain A/Taiwan).
outcomeMeasure: EC50 (µg/mL)

- compound: "CC(=O)C1c2c(S(=O)(=O)O)cc3cc(S(=O)(=O)O)c(c(O)c3c2O)C(C(C)=O)c2c(S(=O)(=O)O)cc3cc(S(=O)(=O)O)c(c(O)c3c2O)C(C(C)=O)c2c(S(=O)(=O)O)cc3cc(S(=O)(=O)O)c(c(O)c3c2O)C(C(C)=O)c2c(S(=O)(=O)O)cc3cc(S(=O)(=O)O)c1c(O)c3c2O (centres unmarked)"
  outcomeMeasure: "EC50"
  unitAbbrev: "µg/mL"
  comparisonOperator: ">"
  valueMeasured: 250
- compound: "O=S(=O)(O)c1c2c(O)c3c(O)c(c(S(=O)(=O)O)c(Br)c3c1Br)Cc1c(S(=O)(=O)O)c(Br)c3c(Br)c(S(=O)(=O)O)c(c(O)c3c1O)Cc1c(S(=O)(=O)O)c(Br)c3c(Br)c(S(=O)(=O)O)c(c(O)c3c1O)Cc1c(S(=O)(=O)O)c(Br)c3c(Br)c(S(=O)(=O)O)c(c(O)c3c1O)C2"
  outcomeMeasure: "EC50"
  unitAbbrev: "µg/mL"
  comparisonOperator: "="
  valueMeasured: 7.9
- compound: "O=S(=O)(O)c1cc2cc(S(=O)(=O)O)c3c(O)c2c(O)c1Cc1c(S(=O)(=O)O)cc2cc(S(=O)(=O)O)c(c(O)c2c1O)Cc1c(S(=O)(=O)O)cc2cc(S(=O)(=O)O)c(c(O)c2c1O)Cc1c(S(=O)(=O)O)cc2cc(S(=O)(=O)O)c(c(O)c2c1O)C3"
  outcomeMeasure: "EC50"
  unitAbbrev: "µg/mL"
  comparisonOperator: ">"
  valueMeasured: 188
- compound: "O=S(O)c1cc2cc(S(=O)O)c3c(O)c2c(O)c1Cc1c(S(=O)O)cc2cc(S(=O)O)c(c(O)c2c1O)Cc1c(S(=O)O)cc2cc(S(=O)O)c(c(O)c2c1O)Cc1c(S(=O)O)cc2cc(S(=O)O)c(c(O)c2c1O)C3"
  outcomeMeasure: "EC50"
  unitAbbrev: "µg/mL"
  comparisonOperator: "="
  valueMeasured: 31.3
- compound: "COc1c2c(S(=O)(=O)O)cc3cc(S(=O)(=O)O)c(c(OC)c13)Cc1c(S(=O)(=O)O)cc3cc(S(=O)(=O)O)c(c(OC)c3c1OC)Cc1c(S(=O)(=O)O)cc3cc(S(=O)(=O)O)c(c(OC)c3c1OC)Cc1c(S(=O)(=O)O)cc3cc(S(=O)(=O)O)c(c(OC)c3c1OC)C2"
  outcomeMeasure: "EC50"
  unitAbbrev: "µg/mL"
  comparisonOperator: ">"
  valueMeasured: 94

* * *

Tested on: HSV-1
Assay: Plaque reduction assay, HSV-1, Vero cells
Type: cell-based, HSV-1 (Kos-1)
Conditions: Human alphaherpesvirus 1, Vero, plaque reduction, Vero cells
Procedure: used in Table 3 were further tested for activity against HSV infection in a plaque reduction assay, as detailed in Example 6. Here Vero cells, after overnight incubation, were exposed to serial dilutions of KY compound, […] incubated for 2 days, then stained and counted for plaque formation. Percent inhibition was determined by dividing plaques produced by total […] effect curve of plaque inhibition (expressed as percent of control), the […] IC50, was determined. […]
Each entry below carries its recorded IC50.

- compound: "O=S(=O)(O)c1cc2c(O)c(c1)Cc1cc(S(=O)(=O)O)cc(c1O)Cc1cc(S(=O)(=O)O)cc(c1O)Cc1cc(S(=O)(=O)O)cc(c1O)Cc1cc(S(=O)(=O)O)cc(c1O)Cc1cc(S(=O)(=O)O)cc(c1O)C2 [Y-77]"
  testTarget: "HSV-1"
  comparisonOperator: "="
  IC50 (µg/mL): 8
- compound: "O=S(=O)(O)c1c2c(O)c3c(O)c(c(S(=O)(=O)O)c(O)c3c1O)Cc1c(S(=O)(=O)O)c(O)c3c(O)c(S(=O)(=O)O)c(c(O)c3c1O)Cc1c(S(=O)(=O)O)c(O)c3c(O)c(S(=O)(=O)O)c(c(O)c3c1O)Cc1c(S(=O)(=O)O)c(O)c3c(O)c(S(=O)(=O)O)c(c(O)c3c1O)C2 [KY-143]"
  testTarget: "HSV-1"
  comparisonOperator: ">"
  IC50 (µg/mL): 10
- compound: "O=S(=O)(NO)c1cc2cc(S(=O)(=O)NO)c3c(O)c2c(O)c1Cc1c(S(=O)(=O)NO)cc2cc(S(=O)(=O)NO)c(c(O)c2c1O)Cc1c(S(=O)(=O)NO)cc2cc(S(=O)(=O)NO)c(c(O)c2c1O)Cc1c(S(=O)(=O)NO)cc2cc(S(=O)(=O)NO)c(c(O)c2c1O)C3 [KY-359]"
  testTarget: "HSV-1"
  comparisonOperator: "="
  IC50 (µg/mL): 5.75
- compound: "CC(=O)C1c2c(S(=O)(=O)O)cc3cc(S(=O)(=O)O)c(c(O)c3c2O)C(C(C)=O)c2c(S(=O)(=O)O)cc3cc(S(=O)(=O)O)c(c(O)c3c2O)C(C(C)=O)c2c(S(=O)(=O)O)cc3cc(S(=O)(=O)O)c(c(O)c3c2O)C(C(C)=O)c2c(S(=O)(=O)O)cc3cc(S(=O)(=O)O)c1c(O)c3c2O (stereo not shown) [KY-110]"
  testTarget: "HSV-1"
  comparisonOperator: ">"
  IC50 (µg/mL): 10
- compound: "COc1c2c(S(=O)(=O)O)cc3cc(S(=O)(=O)O)c(c(OC)c13)Cc1c(S(=O)(=O)O)cc3cc(S(=O)(=O)O)c(c(OC)c3c1OC)Cc1c(S(=O)(=O)O)cc3cc(S(=O)(=O)O)c(c(OC)c3c1OC)Cc1c(S(=O)(=O)O)cc3cc(S(=O)(=O)O)c(c(OC)c3c1OC)C2 [KY-151]"
  testTarget: "HSV-1"
  comparisonOperator: "="
  IC50 (µg/mL): 1.25
- compound: "C=CC1c2c(S(=O)(=O)O)cc3cc(S(=O)(=O)O)c(c(O)c3c2O)C(C=C)c2c(S(=O)(=O)O)cc3cc(S(=O)(=O)O)c(c(O)c3c2O)C(C=C)c2c(S(=O)(=O)O)cc3cc(S(=O)(=O)O)c(c(O)c3c2O)C(C=C)c2c(S(=O)(=O)O)cc3cc(S(=O)(=O)O)c1c(O)c3c2O (stereo not shown) [KY-97]"
  testTarget: "HSV-1"
  comparisonOperator: ">"
  IC50 (µg/mL): 10
- compound: "CNS(=O)(=O)c1cc2cc(S(=O)(=O)NC)c3c(O)c2c(O)c1Cc1c(S(=O)(=O)NC)cc2cc(S(=O)(=O)NC)c(c(O)c2c1O)Cc1c(S(=O)(=O)NC)cc2cc(S(=O)(=O)NC)c(c(O)c2c1O)Cc1c(S(=O)(=O)NC)cc2cc(S(=O)(=O)NC)c(c(O)c2c1O)C3 [KY-147]"
  testTarget: "HSV-1"
  comparisonOperator: ">"
  IC50 (µg/mL): 10

* * *

tested on: HIV-HXB; experiment: Inhibition of syncytia formation, HIV-HXB (HTLV-IIIB); conditions: Human immunodeficiency virus 1, 18 h, read-out: HIV-HXB ED100, complete inhibition of syncytia formation
Recorded log10(EC100) values for a group of compounds are listed next.
outcomeMeasure: log10(EC100) (log10 of the value in µg/mL)

- compound: "CNS(=O)(=O)c1cc2cc(S(=O)(=O)NC)c3c(O)c2c(O)c1Cc1c(S(=O)(=O)NC)cc2cc(S(=O)(=O)NC)c(c(O)c2c1O)Cc1c(S(=O)(=O)NC)cc2cc(S(=O)(=O)NC)c(c(O)c2c1O)Cc1c(S(=O)(=O)NC)cc2cc(S(=O)(=O)NC)c(c(O)c2c1O)C3 [KY-147]"
  valueMeasured: 2.40
- compound: "Oc1c2c(S)cc3cc(S)c(c(O)c13)Cc1c(S)cc3cc(S)c(c(O)c3c1O)Cc1c(S)cc3cc(S)c(c(O)c3c1O)Cc1c(S)cc3cc(S)c(c(O)c3c1O)C2 [KY-171]"
  valueMeasured: 2.10
- compound: "O=S(=O)(O)c1c2c(O)c3c(O)c(c(S(=O)(=O)O)c(O)c3c1O)C(c1ccccc1)c1c(S(=O)(=O)O)c(O)c3c(O)c(S(=O)(=O)O)c(c(O)c3c1O)C(c1ccccc1)c1c(S(=O)(=O)O)c(O)c3c(O)c(S(=O)(=O)O)c(c(O)c3c1O)C(c1ccccc1)c1c(S(=O)(=O)O)c(O)c3c(O)c(S(=O)(=O)O)c(c(O)c3c1O)C2c1ccccc1 (stereo not shown) [KY-85]"
  valueMeasured: 1.51
- compound: "O=S(=O)(O)c1cc2cc(S(=O)(=O)O)c3c(O)c2c(O)c1Cc1c(S(=O)(=O)O)cc2cc(S(=O)(=O)O)c(c(O)c2c1O)Cc1c(S(=O)(=O)O)cc2cc(S(=O)(=O)O)c(c(O)c2c1O)Cc1c(S(=O)(=O)O)cc2cc(S(=O)(=O)O)c(c(O)c2c1O)C3 [KY-1]"
  valueMeasured: 0.90
- compound: "O=S(=O)(O)c1c2c(O)c3c(O)c(c(S(=O)(=O)O)c(Br)c3c1Br)C(C(Br)CBr)c1c(S(=O)(=O)O)c(Br)c3c(Br)c(S(=O)(=O)O)c(c(O)c3c1O)C(C(Br)CBr)c1c(S(=O)(=O)O)c(Br)c3c(Br)c(S(=O)(=O)O)c(c(O)c3c1O)C(C(Br)CBr)c1c(S(=O)(=O)O)c(Br)c3c(Br)c(S(=O)(=O)O)c(c(O)c3c1O)C2C(Br)CBr (stereo not shown) [KY-193]"
  valueMeasured: 1.80
- compound: "CC(=O)Oc1c2c(S(=O)(=O)O)cc3cc(S(=O)(=O)O)c(c(OC(C)=O)c13)C(C(=O)O)c1c(S(=O)(=O)O)cc3cc(S(=O)(=O)O)c(c(OC(C)=O)c3c1OC(C)=O)C(C(=O)O)c1c(S(=O)(=O)O)cc3cc(S(=O)(=O)O)c(c(OC(C)=O)c3c1OC(C)=O)C(C(=O)O)c1c(S(=O)(=O)O)cc3cc(S(=O)(=O)O)c(c(OC(C)=O)c3c1OC(C)=O)C2C(=O)O (stereo not shown) [KY-272]"
  valueMeasured: 1.80
- compound: "CCCC(=O)Oc1c2c(S(=O)(=O)O)cc3cc(S(=O)(=O)O)c(c(OC(=O)CCC)c13)Cc1c(S(=O)(=O)O)cc3cc(S(=O)(=O)O)c(c(OC(=O)CCC)c3c1OC(=O)CCC)Cc1c(S(=O)(=O)O)cc3cc(S(=O)(=O)O)c(c(OC(=O)CCC)c3c1OC(=O)CCC)Cc1c(S(=O)(=O)O)cc3cc(S(=O)(=O)O)c(c(OC(=O)CCC)c3c1OC(=O)CCC)C2 [KY-281]"
  valueMeasured: 1.20
